Where do the numbers come from? From patent US10344019B2.

Tested on: HCV 2a JFH-1 Rluc cells (dicistronic genotype 2a JFH-1 replicon, RLuc reporter)
Assay: microbe, parasite or virus in culture
Type: cell-based
Conditions: Hepatitis C virus, 72 h, Table 2; genotype 2a JFH-1 replicon, 72 hours; read-out: 2a JFH
pEC50: −log10 of the molar value.
Parameter measured: pEC50

Molecule	pEC50
COC(=O)N[C@H](C(=O)N1CCC[C@H]1c1ncc(-c2ccc(-c3ccc4cc(-c5cnc([C@@H]6CCCN6C(=O)[C@H](NC(=O)OC)c6ccccc6)[nH]5)ccc4c3)cc2)[nH]1)C(C)C	9.00 to 12.00
COC(=O)N[C@H](C(=O)N1CCC[C@H]1c1nc2ccc3cc(-c4ccc(-c5cnc([C@@H]6[C@H]7CC[C@H](C7)N6C(=O)[C@@H](NC(=O)OC)C(C)C)[nH]5)cc4)ccc3c2[nH]1)C(C)C	9.00 to 12.00
COC(=O)NC(C(=O)N1CCC[C@H]1c1nc2ccc3cc(-c4ccc5cc(-c6cnc([C@@H]7[C@H]8CC[C@H](C8)N7C(=O)[C@H](NC(=O)OC)c7ccccc7)[nH]6)ccc5c4)ccc3c2[nH]1)[C@@H](C)OC (stereo partly shown)	7.36 to 9.00

Now look at this entry.
For this molecule ( COC(=O)N[C@H](C(=O)N1[C@@H]2CC[C@@H](C2)[C@H]1c1ncc(-c2ccc(-c3ccc(-c4cnc([C@@H]5C[C@H]6C[C@H]6N5C(=O)[C@@H](NC(=O)OC)C(C)C)[nH]4)cc3)cc2)[nH]1)C(C)C ), measured pEC50 is 9.00 to 12.00

* * *

For each record, write down the corresponding EC50.
System: HCV 3a RLuc cells (NS5A chimeric genotype 1b Con1 replicon with consensus genotype 3a NS5A gene)
Experiment: microbe, parasite or virus in culture
Format: cell-based
Conditions: Hepatitis C virus, read-out: 3a, genotype 3a NS5A chimeric replicon

Compound	EC50
COC[C@H]1C[C@@H](c2ncc(-c3ccc4c(c3)COc3cc5c(cc3-4)CCc3nc([C@@H]4CCCN4C(=O)[C@@H](NC(=O)OC)C(C)C)[nH]c3-5)[nH]2)N(C(=O)[C@H](NC(=O)OC)c2ccccc2)C1 [Example 606]	0.001 to 0.99 nM

Now look at this entry.
For this compound ( CC#Cc1cc2nc([C@@H]3CCCN3C(=O)[C@@H](NC(=O)OC)C(C)C)[nH]c2c2ccc(-c3ccc4c(ccc5nc([C@@H]6C[C@H](COC)CN6C(=O)[C@H](N)c6ccccc6)[nH]c54)c3)cc12 [Example 593] ), measured EC50 is 0.001 to 0.99 nM

* * *

Test system: HCV 1a RLuc cells (dicistronic genotype 1a H77 replicon, RLuc reporter)
Test: microbe, parasite or virus in culture
Assay type: cell-based
Settings: Hepatitis C virus, genotype 1a H77 RLuc replicon; read-out: 1a
pEC50: −log10 of the molar value.
For each record, write down the corresponding pEC50.

Below are worked cases with known answers.
1) COC[C@H]1C[C@@H](c2ncc(-c3cc4c5c(c3)OCc3cc(-c6cnc([C@@H]7CC[C@H](C)N7C(=O)[C@@H](NC(=O)OC)C(C)C)[nH]6)cc(c3-5)OC4)[nH]2)N(C(=O)[C@H](NC(=O)OC)c2ccccc2)C1 9.00 to 12.00
2) COC[C@H]1C[C@@H](c2ncc(-c3ccc(-c4ccc(-c5cnc([C@@H]6C[C@H](C)CN6C(=O)[C@H](NC(=O)C6CC6)c6ccccc6)[nH]5)cc4)cc3)[nH]2)N(C(=O)[C@@H](NC(=O)OC)C(C)C)C1 9.00 to 12.00
3) O=C(N[C@@H](C(=O)N1CCC[C@H]1c1ncc(-c2cc3c4c(c2)OCc2cc(-c5cnc([C@@H]6CCCN6C(=O)[C@H](NC(=O)c6cncnc6)c6ccccc6)[nH]5)cc(c2-4)OC3)[nH]1)c1ccccc1)c1cncnc1 7.36 to 9.00

Now look at this entry.
For this compound ( CC[C@@H](C)[C@H](NC(=O)OC)C(=O)N1C[C@@H](COC)C[C@H]1c1nc2ccc3cc4c(cc3c2[nH]1)OCc1cc(-c2cnc([C@@H]3CC[C@H](C)N3C(=O)[C@@H](NC(=O)OC)[C@H](C)CC)[nH]2)ccc1-4 ), measured pEC50 is 9.00 to 12.00

* * *

System: HCV 3a RLuc cells (NS5A chimeric genotype 1b Con1 replicon with consensus genotype 3a NS5A gene)
Experiment: microbe, parasite or virus in culture
Format: cell-based
Conditions: Hepatitis C virus, read-out: 3a, genotype 3a NS5A chimeric replicon
pEC50: −log10 of the molar value.
For each record, write down the corresponding pEC50.

1) COC[C@H]1C[C@@H](c2ncc(-c3ccc4c(c3)COc3cc5c(ccc6nc([C@@H]7C[C@H](C)CN7C(=O)[C@@H](NC(=O)OC)C(C)C)[nH]c65)cc3-4)[nH]2)N(C(=O)[C@H](NC(=O)OC)c2ccccc2)C1 9.00 to 12.00

For this compound ( COC(=O)N[C@H](C(=O)N1CCC[C@H]1c1ncc(-c2ccc3c(c2)COc2cc4c(ccc5nc([C@@H]6CCCN6C(=O)[C@H](NC(=O)OC)c6ccccc6)[nH]c54)cc2-3)[nH]1)[C@@H](C)OC ), measured pEC50 is 9.00 to 12.00

* * *

For each record, write down the corresponding EC50.
System: HCV 1a RLuc cells (dicistronic genotype 1a H77 replicon, RLuc reporter)
Test: microbe, parasite or virus in culture
Assay type: cell-based
Conditions: Hepatitis C virus, genotype 1a H77 RLuc replicon; read-out: 1a

1) COC(=O)N[C@H](C(=O)N1[C@@H](C)CC[C@H]1c1ncc(-c2ccc3c(c2)COc2cc4c(ccc5nc([C@@H]6CC[C@H](C)N6C(=O)[C@@H](NC(=O)OC)[C@@H](C)OC)[nH]c54)cc2-3)[nH]1)[C@@H](C)OC 0.001 to 0.999 nM

Now look at this entry.
For this compound ( COC(=O)N[C@H](C(=O)N1[C@@H](C)CC[C@H]1c1ncc(-c2ccc3c(c2)COc2cc4c(ccc5nc([C@@H]6C[C@H](C)CN6C(=O)[C@H](NC(=O)OC)c6ccccc6)[nH]c54)cc2-3)[nH]1)C(C)C ), measured EC50 is 0.001 to 0.999 nM

* * *

Tested on: HCV 1a RLuc cells (dicistronic genotype 1a H77 replicon, RLuc reporter)
Assay: microbe, parasite or virus in culture
Type: cell-based
Settings: Hepatitis C virus, genotype 1a H77 RLuc replicon; read-out: 1a
Description: Evaluation of cell-based anti-HCV activity: Antiviral potency (EC50) was determined using a Renilla luciferase (RLuc)-based HCV replicon reporter assay. […] 72 hours later, cells were lysed and Renilla luciferase activity quantified as recommended by the manufacturer (Promega-Madison, Wis.). […]
pEC50: −log10 of the molar value.
Parameter measured: pEC50

Below are worked cases with known answers.
1) O=C(N[C@@H](C(=O)N1CCC[C@H]1c1ncc(-c2cc3c4c(c2)OCc2cc(-c5cnc([C@@H]6CCCN6C(=O)[C@H](NC(=O)c6ccncn6)c6ccccc6)[nH]5)cc(c2-4)OC3)[nH]1)c1ccccc1)c1ccncn1 9.00 to 12.00
2) COC[C@@H]1C[C@@H](c2nc3ccc4cc5c(cc4c3[nH]2)OCc2cc(-c3cnc([C@@H]4CCCN4C(=O)[C@@H](NC(=O)OC)C(C)C)[nH]3)ccc2-5)N(C(=O)[C@H](NC(=O)OC)c2ccccc2)C1 9.00 to 12.00
3) CC[C@H](C)[C@H](NC(=O)OC)C(=O)N1[C@@H](C)CC[C@H]1c1ncc(-c2ccc3c(c2)COc2cc4c(ccc5nc([C@@H]6C[C@H](COC)CN6C(=O)[C@@H](NC(=O)OC)C(C)C)[nH]c54)cc2-3)[nH]1 9.00 to 12.00

For each of the items listed, what is its pEC50?
1. COC(=O)N[C@H](C(=O)N1CCC[C@H]1c1ncc(-c2ccc3c(c2)COc2cc4c(cc2-3)CCc2nc([C@@H]3CCCN3C(=O)[C@H](NC(=O)C3CC3)c3ccccc3)[nH]c2-4)[nH]1)C(C)C
2. COC[C@H]1C[C@@H](c2nc3ccc4cc(-c5ccc6c(ccc7nc([C@@H]8CCCN8C(=O)[C@H](NC(=O)C8CC8)c8ccccc8)[nH]c76)c5)ccc4c3[nH]2)N(C(=O)[C@@H](NC(=O)OC)C(C)C)C1
3. COC[C@H]1C[C@@H](c2nc3ccc4cc(-c5ccc6c(ccc7nc([C@@H]8C[C@H]9C[C@H]9N8C(=O)[C@@H](NC(=O)OC)C(C)C)[nH]c76)c5)ccc4c3[nH]2)N(C(=O)[C@H](NC(=O)OC(C)(C)C)c2ccccc2)C1

// result
1: 9.00 to 12.00; 2: 9.00 to 12.00; 3: 9.00 to 12.00

* * *

Test system: HCV 3a RLuc cells (NS5A chimeric genotype 1b Con1 replicon with consensus genotype 3a NS5A gene)
Experiment: microbe, parasite or virus in culture
Assay type: cell-based
Conditions: Hepatitis C virus, read-out: 3a, genotype 3a NS5A chimeric replicon
For each record, write down the corresponding EC50.

1) COC(=O)N[C@H](C(=O)N1CCC[C@H]1c1nc2ccc3cc(-c4ccc5c(ccc6nc([C@@H]7C[C@H](COC(F)F)CN7C(=O)[C@@H](NC(=O)OC)C(C)C)[nH]c65)c4)ccc3c2[nH]1)C(C)C 0.001 to 0.99 nM

Now look at this entry.
For this compound ( COC[C@H]1C[C@@H](c2ncc(-c3ccc(-c4ccc(-c5cnc([C@@H]6CCCN6C(=O)[C@@H](NC(=O)OC)C(C)C)[nH]5)cc4)cc3)[nH]2)N(C(=O)[C@H](NC(=O)C2CC2)c2ccccc2)C1 ), measured EC50 is 0.001 to 0.99 nM
